System: Escherichia coli | Read-out: MIC

Structure smiles string | Unit of measurement | Prefix operator | MIC
CC[C@H](C)[C@H](NC(=O)[C@H](CCCCN)NC(=O)[C@H](CO)NC(=O)[C@H](C)NC(=O)[C@@H](NC(=O)[C@H](CCCCN)NC(=O)[C@H](CCCCN)NC(=O)[C@@H](NC(=O)[C@@H](NC(=O)[C@H](CC(=O)O)NC(=O)[C@H](Cc1ccccc1)NC(=O)[C@H](CC(C)C)NC(=O)CN)C(C)C)[C@@H](C)CC)C(C)C)C(=O)NCC(=O)NCC(=O)N[C@@H](CC(C)C)C(N)=O | µM | = | 60.8
CC(C)C[C@H](NC(=O)[C@@H](NC(=O)[C@H](CCCCN)NC(=O)[C@H](CO)NC(=O)[C@H](C)NC(=O)[C@@H](NC(=O)[C@H](CCCCN)NC(=O)[C@H](Cc1ccccc1)NC(=O)[C@H](CC(C)C)NC(=O)[C@H](C)NC(=O)[C@H](CCCCN)NC(=O)[C@H](CC(C)C)NC(=O)[C@@H](N)Cc1ccccc1)C(C)C)C(C)C)C(=O)O | µM | = | 4.3
CC[C@H](C)[C@H](N)C(=O)N[C@@H](CC(N)=O)C(=O)N[C@@H](Cc1c[nH]c2ccccc12)C(=O)N[C@@H](CCCCN)C(=O)N[C@@H](CCCCN)C(=O)N[C@H](C(=O)N[C@@H](C)C(=O)N[C@@H](CO)C(=O)N[C@H](C(=O)NCC(=O)N[C@@H](CCCCN)C(=O)N[C@@H](CCC(=O)O)C(=O)N[C@H](C(=O)N[C@@H](CC(C)C)C(=O)N[C@@H](CCCCN)C(=O)N[C@@H](C)C(=O)N[C@H](C(N)=O)[C@@H](C)CC)C(C)C)[C@@H](C)CC)[C@@H](C)CC | µM | = | 5.5
NC(=O)CC[C@H](NC(=O)[C@H](Cc1c[nH]c2ccccc12)NC(=O)[C@H](Cc1c[nH]c2ccccc12)NC(=O)[C@H](CCCN=C(N)N)NC(=O)[C@H](CCCN=C(N)N)NC(=O)[C@H](Cc1c[nH]c2ccccc12)NC(=O)[C@H](CCC(N)=O)NC(=O)[C@@H](N)CCCN=C(N)N)C(=O)N[C@@H](CCCN=C(N)N)C(N)=O | µM | = | 8.58
CC(C)[C@H](NC(=O)CNC(=O)[C@@H](N)Cc1cnc[nH]1)C(=O)N[C@@H](CO)C(=O)NCC(=O)N[C@@H](Cc1cnc[nH]1)C(=O)NCC(=O)N[C@@H](CCC(N)=O)C(=O)N[C@@H](Cc1cnc[nH]1)C(=O)NCC(=O)N[C@H](C(=O)N[C@@H](Cc1cnc[nH]1)C(=O)NCC(=O)O)C(C)C | µM | = | 12.6
CC[C@H](C)[C@H](N)C(=O)N[C@@H](CC(=O)O)C(=O)N[C@@H](Cc1c[nH]c2ccccc12)C(=O)N[C@@H](CCCCN)C(=O)N[C@@H](CCCCN)C(=O)N[C@H](C(=O)N[C@@H](Cc1ccccc1)C(=O)N[C@@H](CCC(=O)O)C(=O)N[C@@H](CCCCN)C(=O)N[C@H](C(=O)N[C@@H](CCCCN)C(=O)N[C@@H](CC(N)=O)C(=O)N[C@@H](CC(C)C)C(=O)N[C@H](C(N)=O)C(C)C)C(C)C)[C@@H](C)CC | µM | = | 13
CC(C)C[C@H](NC(=O)CNC(=O)[C@H](C)NC(=O)[C@@H](N)CCCN=C(N)N)C(=O)N[C@@H](CCC(N)=O)C(=O)N[C@@H](Cc1ccccc1)C(=O)N[C@@H](CC(C)C)C(=O)N[C@H](C(=O)NCC(=O)N[C@@H](CCCN=C(N)N)C(=O)N[C@H](C(=O)N[C@@H](Cc1cnc[nH]1)C(=O)N[C@@H](CCCN=C(N)N)C(=O)N[C@@H](CC(C)C)C(=O)N[C@@H](CC(C)C)C(=O)N[C@@H](CCCN=C(N)N)C(=O)N[C@@H](CCCCN)C(=O)O)C(C)C)C(C)C | µM | = | 15.8
CSCC[C@H](NC(=O)[C@H](CCSC)NC(=O)[C@H](CCCCN)NC(=O)[C@H](CCCCN)NC(=O)CNC(=O)[C@H](CC(C)C)NC(=O)[C@H](CCCCN)NC(=O)[C@H](CC(C)C)NC(=O)[C@H](Cc1c[nH]c2ccccc12)NC(=O)[C@H](CC(N)=O)NC(=O)[C@@H](N)CO)C(=O)N[C@@H](CO)C(=O)N[C@@H](C)C(=O)N[C@@H](CC(C)C)C(N)=O | µM | = | 100
CC(C)C[C@H](NC(=O)[C@H](C)NC(=O)CNC(=O)[C@H](CC(C)C)NC(=O)[C@@H](N)Cc1ccccc1)C(=O)N[C@@H](Cc1ccccc1)C(=O)N[C@@H](CCCCN)C(=O)N[C@H](C(=O)N[C@@H](C)C(=O)N[C@@H](CO)C(=O)N[C@@H](CCCCN)C(=O)O)C(C)C | µM | > | 169
CC[C@H](C)[C@H](NC(=O)CNC(=O)[C@H](CCCN=C(N)N)NC(=O)[C@H](C)NC(=O)[C@H](CCSC)NC(=O)[C@@H]1CCCN1C(=O)[C@H](C)NC(=O)CNC(=O)[C@H](CCC(=O)O)NC(=O)[C@H](CC(C)C)NC(=O)[C@@H]1CCCN1C(=O)[C@H](CC(=O)O)NC(=O)[C@H](Cc1ccccc1)NC(=O)[C@@H](N)CCCCN)C(=O)N[C@H](C(=O)N[C@@H](CC(C)C)C(=O)N[C@@H](CCC(=O)O)C(=O)N[C@@H](CCCCN)C(=O)N[C@H](C(=O)NCC(=O)O)C(C)C)C(C)C | µM | > | 120

---

Listed here are compounds together with their documented MIC.
system: Escherichia coli ATCC 8739
Measurement kind: MIC

Structure smiles string | Result
CC[C@H](C)[C@H](NC(=O)[C@@H](NC(=O)[C@H](CC(=O)O)NC(=O)[C@H](Cc1ccccc1)NC(=O)[C@H](CC(C)C)NC(=O)CN)C(C)C)C(=O)N[C@@H](CCCCN)C(=O)N[C@@H](CCCCN)C(=O)N[C@H](C(=O)N[C@@H](C)C(=O)N[C@@H](CO)C(=O)O)C(C)C | ≥ 870 µM
CC[C@H](C)[C@H](NC(=O)CN)C(=O)N[C@@H](CC(C)C)C(=O)N[C@@H](CO)C(=O)N[C@H](C(=O)N[C@H](C(=O)N[C@@H](Cc1ccccc1)C(=O)N[C@@H](CCCCN)C(=O)N[C@@H](C)C(=O)NCC(=O)N[C@@H](CCCCN)C(=O)NCC(=O)N[C@H](C(=O)N[C@H](C(=O)N[C@H]1CSSC[C@@H](C(=O)O)NC(=O)[C@H](CC(C)C)NC(=O)CNC(=O)[C@H](CO)NC(=O)[C@H](CC(C)C)NC(=O)CNC1=O)C(C)C)[C@@H](C)CC)C(C)C)[C@@H](C)O | ≥ 50 µM
CC[C@H](C)[C@H](NC(=O)[C@@H](NC(=O)[C@H](CO)NC(=O)[C@H](C)NC(=O)[C@@H](NC(=O)[C@H](CCCCN)NC(=O)[C@H](CCCCN)NC(=O)[C@@H](NC(=O)[C@@H](NC(=O)[C@H](C)NC(=O)[C@H](Cc1ccccc1)NC(=O)[C@H](CC(C)C)NC(=O)CN)C(C)C)[C@@H](C)CC)C(C)C)C(C)C)C(=O)NCC(=O)NCC(=O)O | ≥ 351 µM
CC(C)C[C@H](NC(=O)[C@@H]1CCCN1C(=O)[C@H](CCCN=C(N)N)NC(=O)[C@H](CCCN=C(N)N)NC(=O)[C@H](CS)NC(=O)[C@H](CCC(N)=O)NC(=O)[C@@H](N)CCC(N)=O)C(=O)N[C@@H](Cc1ccc(O)cc1)C(=O)N[C@@H](CS)C(=O)N[C@@H](CCCN=C(N)N)C(=O)N[C@@H](CCCN=C(N)N)C(=O)N[C@@H](CCCN=C(N)N)C(=O)O | 25 µM

---

System: Escherichia coli NCTC 10418 | Read-out: MIC
Measurement kind: MIC

Structure smiles string | Result
CC[C@H](C)[C@H](NC(=O)[C@H](CO)NC(=O)[C@H](CCCCN)NC(=O)[C@H](Cc1c[nH]c2ccccc12)NC(=O)[C@H](CC(C)C)NC(=O)[C@H](C)N)C(=O)N[C@@H](CC(C)C)C(=O)N[C@@H](CCCCN)C(=O)N[C@@H](CC(N)=O)C(=O)N[C@H](C(=O)NCC(=O)N[C@@H](CCCCN)C(=O)N[C@@H](C)C(=O)N[C@@H](C)C(=O)NCC(=O)N[C@@H](CCCCN)C(=O)N[C@@H](C)C(=O)N[C@H](C(=O)N[C@@H](CC(C)C)C(N)=O)C(C)C)C(C)C | 2 µM
CC[C@H](C)[C@H](NC(=O)[C@H](C)NC(=O)[C@H](Cc1cnc[nH]1)NC(=O)[C@@H]1CCCN1C(=O)[C@@H](NC(=O)[C@H](CC(C)C)NC(=O)[C@H](CO)NC(=O)[C@H](Cc1ccccc1)NC(=O)[C@H](CC(C)C)NC(=O)[C@@H](N)Cc1ccccc1)[C@@H](C)CC)C(=O)N[C@@H](CO)C(=O)NCC(=O)N[C@@H](CC(C)C)C(=O)N[C@H](C(=O)N[C@@H](CO)C(=O)N[C@@H](C)C(=O)N[C@@H](Cc1ccccc1)C(=O)N[C@H](C=O)CCCCN)[C@@H](C)CC | ≥ 250 µM
CC[C@H](C)[C@H](NC(=O)[C@H](CCCCN)NC(=O)[C@H](C)NC(=O)[C@H](C)N)C(=O)N[C@H](C(=O)N[C@@H](CC(C)C)C(=O)N[C@@H](CC(N)=O)C(=O)N1CCC[C@H]1C(=O)N[C@@H](CCCCN)C(=O)N[C@@H](Cc1ccccc1)C(=O)N[C@@H](CCCN=C(N)N)C(=O)N[C@H]1CSSC[C@@H](C(=O)O)NC(=O)[C@H](Cc2ccccc2)NC(=O)[C@H](C)NC(=O)[C@H](C)NC(=O)[C@H](Cc2ccccc2)NC1=O)[C@@H](C)CC | ≥ 160 µM
